B1: Hairpin Ribozyme (parent)
chain: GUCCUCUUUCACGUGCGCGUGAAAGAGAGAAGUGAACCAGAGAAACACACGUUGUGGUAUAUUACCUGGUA

- Variants of: B1
- testSummary: self-cleavage, relative activity (ratio to wild type); higher = more cleavage; co-transcriptional
readoutName: self-cleavage
API doc: respond with a numeric literal and nothing else, no unit.

mutationList | self-cleavage
G34A C37U | 0.915
G19A U52G | 0.735
U14A G27U | 0.192
C4U U33G | 0.0889
A30C U52A | 0.214
A45U U67G | 0.131

Q: Determine its reported self-cleavage: A23G A59G
A: 0.184

Q: Determine its reported self-cleavage: G1C G42A
A: 0.148

Q: Determine its reported self-cleavage: G27A U58C
A: 0.516

All values here come from the RNAGym collection of RNA variant scans (doi:10.7554/elife.80360).
